Test system: 435261-313-R-J1-PDC complex spheroid viability;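 further: spheroids exposed to the agents for seven days before readout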
PROTOCOL SUMMARY: Anticancer human tumor 435261-313-R-J1-PDC patient-derived colon adenocarcinoma cell line growth inhibition [GQUAD]
CONDITION PARAMETERS: second compound 3.16 µM; first compound 0.0316 µM; stronger effect = lower value
viability, T/C less than 20% is rule met; viability, T/C greater than or equal to 20% is rule not met.

INSERT INTO results (molecule, label) VALUES
  ('Nc1ccn(C2OC(CO)C(O)C2(F)F)c(=O)n1 (stereo unspecified) + CN(C)c1ccc(Nc2c3ccc(NC(=O)CCN4CCCC4)cc3nc3cc(NC(=O)CCN4CCCC4)ccc23)cc1', 'rule not met'),
  ('CCc1c2c(nc3ccc(O)cc13)-c1cc3c(c(=O)n1C2)COC(=O)[C@]3(O)CC + Cc1[nH]c2ccc(F)cc2c1-c1nc2c3cccnc3c3ncccc3c2[nH]1', 'rule not met'),
  ('Cc1cccc(N(C)C(=O)C2C(O)CCN2c2nc(C)cc(C(F)(F)F)c2C#N)c1 (stereo unspecified) + Cc1cnc(CNC(=O)c2c(=O)c3ccc(N4CCCN(C)CC4)nc3n3c2sc2ccccc23)cn1', 'rule met'),
  ('CC1COCCN1c1cc(C2(O)CC3CCC(C2)O3)c2cnn(-c3ccn[nH]3)c2n1 (stereo unspecified) + CN(C)c1ccc(Nc2c3ccc(NC(=O)CCN4CCCC4)cc3nc3cc(NC(=O)CCN4CCCC4)ccc23)cc1', 'rule not met'),
  ('Nc1ccn(C2OC(CO)C(O)C2(F)F)c(=O)n1 (stereo unspecified) + Cc1[nH]c2ccc(F)cc2c1-c1nc2c3cccnc3c3ncccc3c2[nH]1', 'rule not met'),
  ('CC(C)(O)C1CCC(Nc2ccc3ncc(-c4cccc(C(F)(F)F)c4)n3n2)CC1 (stereo unspecified) + Cc1[nH]c2ccc(F)cc2c1-c1nc2c3cccnc3c3ncccc3c2[nH]1', 'rule not met');
